biological target: human α7 nAChR stably expressed in a HEK cell line (with human RIC-3) (Homo sapiens); construct: PrecisION hnAChR α7/RIC-3; test: Automated patch-clamp electrophysiology functional assay (Assay A), IonFlux HT, whole-cell population patch; type: cell-based; settings: automated patch-clamp electrophysiology functional assay (Assay A); potency class by EC50; read-out: α7 nAChR Potency
Sequence (P36544 23-502): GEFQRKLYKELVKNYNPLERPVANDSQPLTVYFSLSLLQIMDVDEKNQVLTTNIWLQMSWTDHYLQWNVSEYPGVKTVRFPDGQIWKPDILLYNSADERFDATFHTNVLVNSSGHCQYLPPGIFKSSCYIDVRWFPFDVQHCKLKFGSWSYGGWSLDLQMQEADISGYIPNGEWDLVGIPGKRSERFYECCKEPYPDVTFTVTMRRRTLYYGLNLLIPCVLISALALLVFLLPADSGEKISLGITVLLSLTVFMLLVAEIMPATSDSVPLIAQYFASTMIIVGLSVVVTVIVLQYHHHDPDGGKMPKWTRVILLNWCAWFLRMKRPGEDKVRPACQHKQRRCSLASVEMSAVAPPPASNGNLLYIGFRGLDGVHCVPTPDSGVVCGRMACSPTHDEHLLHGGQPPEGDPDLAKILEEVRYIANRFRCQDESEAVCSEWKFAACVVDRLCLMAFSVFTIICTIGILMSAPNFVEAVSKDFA
Assay Metric: EC50

Take a look at these entries with their results.
Reported EC50 of CC1(C)[C@@H](c2ccc(S(N)(=O)=O)cc2)[C@@H]1c1noc(-c2cc(N3CCOC3=O)ccc2F)n1 : 0.5 to 5 µM

Looking up CC1(C)[C@H](c2ccc(S(N)(=O)=O)cc2)[C@H]1c1nnc(-c2cccnc2C2CC2)o1 , I see its EC50 listed as 0.5 to 5 µM

// recorded EC50 for CC1(C)[C@@H](c2ccc(S(N)(=O)=O)cc2)[C@@H]1c1noc(-c2c(F)cccc2F)n1 : 0.1 to 0.5 µM

Continuing:
Reported EC50 for NS(=O)(=O)c1ccc(C2C(c3nc(-c4ccccc4)no3)C23CCCC3)cc1 (single isomer, unassigned) was ≤ 0.1 µM

NS(=O)(=O)c1ccc([C@@H]2[C@@H](c3ncc(C4CCCC4)o3)C2(F)F)cc1 has a reported EC50 of 0.5 to 5 µM

The compound identified as CC1(C)[C@@H](c2ccc(S(N)(=O)=O)cc2)[C@@H]1c1noc(Cc2ccc(F)cc2F)n1 registered its EC50 at 0.1 to 0.5 µM

Recorded EC50 (compound CC1(C)[C@@H](c2ccc(S(N)(=O)=O)cc2)[C@@H]1c1noc(-c2cccnc2C(F)(F)F)n1 ): 0.5 to 5 µM
